- assay-summary: Oral bioavailability after paroral administration of 5(mg/kg) polyethelene glycol in rat was determined
- Type: ADME, organism-based
- condition-parameters: in vivo
value-kind: bioavailability
Phrase the answer as number then unit, nothing more needed.

Record request: bioavailability value, item `COc1ccnc2[nH]cc(C(=O)C(=O)N3CCN(C(=O)c4ccccc4)C[C@H]3C)c12`
19%

* * *

Measured Vd accompanies every entry in the list below.
- assay-summary: The volume of distribution of compound was determined in monkey
- Type: ADME, organism-based
- condition-parameters: simiiformes, in vivo; read-out: Vss
Give the value in L/kg but do not write L/kg after it.

>>> reading("COc1ccnc2[nH]cc(C(=O)C(=O)N3CCN(C(=O)c4ccccc4)C[C@H]3C)c12")
0.39

Switching to the query record.
Record request: Vd value, item `O=C(C(=O)N1CCN(C(=O)c2ccccc2)CC1)c1c[nH]c2cccc(F)c12`
0.24
